Test system: NCI-H522
Experiment: NCI tumour cell line growth inhibition, 48 h
The source made the active and inactive calls. Cut-off read from the data, not from the text of the source: active = GI50 up to about 1.1 µM and inactive = higher.
Outcome codes: label 1 = active, label 0 = inactive

{"molecule": "CC(C)(O)C1CC[C@]2(C)[C@H]3CC[C@@H]4[C@@]5(C)CCCC(C)(C)[C@@H]5CC[C@@]4(C)[C@]3(C)CC[C@@H]12 (stereo partly specified)", "group": "label 0"}
{"molecule": "CCCCC1(N=[N+]=[N-])C(=O)C2C=CC=C3c4ccccc4N(C1=O)C32 (stereo unspecified)", "group": "label 0"}
{"molecule": "CCOC1CC(=O)c2c(Br)sc(Br)c21 (stereo unspecified)", "group": "label 0"}
{"molecule": "C=C1C(=O)O[C@@H]2[C@H]3O[C@]3(C)CCC=C(C)CC[C@@H]12", "group": "label 0"}
{"molecule": "Cc1nn(C)c(=S)n(C)c1=O", "group": "label 1"}
{"molecule": "Nc1cc2[nH]cnc2c(=O)[nH]1", "group": "label 0"}
{"molecule": "COc1ccc(CC2CCc3nc(N)nc(N)c3C2)cc1OC (stereo unspecified)", "group": "label 1"}
{"molecule": "NC1CCN(c2nc3ccccc3c3c2CCCC3)CC1", "group": "label 0"}
{"molecule": "CN1CCN(C(=S)N(C(=O)c2ccc(Cl)cc2)c2ccccc2)CC1", "group": "label 0"}
{"molecule": "COC[C@@H](Cc1ccc(OC)c(OC)c1)[C@@H](COC)Cc1ccc(OC)c(OC)c1", "group": "label 0"}
{"molecule": "O=C1COc2cc3c(cc2N1)SCC(=O)N3", "group": "label 0"}

---

Test system: NCI-H522
Assay: NCI tumour cell line growth inhibition, 48 h
Calls of active or inactive are those of the source. Rule as the data show it: active = GI50 up to about 1.1 µM and inactive = higher.

{"compound": "CC(C)C(Nc1c2ccccc2[n+](C)c2ccccc12)C(=O)O (stereo not given)", "GI50": "1.3 µM (inactive)"}
{"compound": "Cc1cc2nc3c(C#N)c4c(c(Nc5ccc(F)cc5)n3c2cc1C)CCC4", "GI50": "95.5 µM (inactive)"}
{"compound": "COCn1c(C)c(C)c2c(=O)oc(=O)[nH]c21", "GI50": "> 100 µM (inactive)"}
{"compound": "Nc1nnc(CCC(=O)Nc2cc(Cl)ccc2Cl)n1N", "GI50": "> 100 µM (inactive)"}
{"compound": "C=C1CCC2C(C)(CO)C(O)CCC2(C)C1CC(O)C1=CCOC1=O (stereo not given)", "GI50": "5.36 µM (inactive)"}
{"compound": "COc1ccc(-n2cnc3c2=NC(C)(C)NC=3C(N)=O)c(OC)c1", "GI50": "> 100 µM (inactive)"}
{"compound": "COc1cc(Cc2nccc3cc(OC)c(OC)cc23)c(C(C)=O)cc1OC", "GI50": "10.2 µM (inactive)"}
{"compound": "COC(=O)c1ccccc1C1CN=NC12Cc1cc(C)c(C)cc1C2=O (stereo not given)", "GI50": "14.3 µM (inactive)"}
{"compound": "Cn1cc2ccccc2c1-c1nc(F)nc(Oc2ccc3c(c2)CC[C@@H]2C3CC[C@]3(C)C(O)CCC23)n1 (stereo not given in full)", "GI50": "10.9 µM (inactive)"}
{"compound": "COc1cc(OCc2ccc3oc(=O)c(-c4ccccc4)nc3c2)cc(OC)c1OC", "GI50": "> 100 µM (inactive)"}

---

Test system: LOX IMVI
Experiment: NCI tumour cell line growth inhibition, 48 h
Activity calls are given as the source filed them. Cut-off read from the data, not from the text of the source: active = GI50 up to about 1.1 µM and inactive = higher.

{"compound": "COC(=O)Cc1c([C@@H]2Nc3ccccc3[C@H]2CC(=O)OC)[nH]c2ccccc12", "target.under.test": "LOX IMVI", "GI50": "21.6 µM (inactive)"}
{"compound": "O=C1NC(c2ccc3ccccc3c2)Nc2ccccc21 (stereo not drawn)", "target.under.test": "LOX IMVI", "GI50": "58.7 µM (inactive)"}
{"compound": "COc1cccc(/C=C/C(=O)N2CC(CCl)c3c2cc(N)c2ccccc32)c1 (stereo not drawn)", "target.under.test": "LOX IMVI", "GI50": "0.000548 µM (active)"}
{"compound": "CC1CNC(NS(=O)(=O)c2cc(C(=O)Nc3ccc(Cl)cc3)c(Cl)cc2S)=NN1 (stereo not drawn)", "target.under.test": "LOX IMVI", "GI50": "27.4 µM (inactive)"}
{"compound": "CC(C#N)N(CCc1ccccc1)C(=O)c1ccccc1 (stereo not drawn)", "target.under.test": "LOX IMVI", "GI50": "> 100 µM (inactive)"}
{"compound": "CCC(O)C1Cc2c(C)cc3c(c2O1)C(=O)c1ccccc1C3=O (stereo not drawn)", "target.under.test": "LOX IMVI", "GI50": "27.7 µM (inactive)"}
{"compound": "CN1C(=O)CC2(C)c3cc(O)ccc3N(C)C12 (stereo not drawn)", "target.under.test": "LOX IMVI", "GI50": "17.1 µM (inactive)"}
{"compound": "COc1ccc(/C=C2\\C[C@H]3[C@@H]4CCC5=CC(=O)CC[C@]5(C)[C@H]4CC[C@]3(C)C2=O)cc1OC", "target.under.test": "LOX IMVI", "GI50": "11.9 µM (inactive)"}
{"compound": "CCOC(=O)c1[nH]cc(C)c1-c1ccc2c(-c3ccccc3)nc3ccccc3n12", "target.under.test": "LOX IMVI", "GI50": "3.44 µM (inactive)"}
{"compound": "c1nc2cscc2c2cscc12", "target.under.test": "LOX IMVI", "GI50": "> 100 µM (inactive)"}
{"compound": "O=C1C(=O)N(C2C3CC4CC(C3)CC2C4)C(=O)C(=O)C1c1nc2ccccc2o1 (stereo not drawn)", "target.under.test": "LOX IMVI", "GI50": "> 100 µM (inactive)"}
{"compound": "CCOC(=O)c1c(O)nc(O)c(CC)c1C", "target.under.test": "LOX IMVI", "GI50": "> 100 µM (inactive)"}
{"compound": "O=C(/N=N/c1ccccc1Br)NNc1ccccc1Br", "target.under.test": "LOX IMVI", "GI50": "91.4 µM (inactive)"}
{"compound": "CCc1c(-c2ccccc2)[nH]c2ccccc2c1=O", "target.under.test": "LOX IMVI", "GI50": "48.1 µM (inactive)"}
{"compound": "COc1cc(Cc2nccc3cc(OC)c(OC)cc23)c(C(C)=O)cc1OC", "target.under.test": "LOX IMVI", "GI50": "23.6 µM (inactive)"}
{"compound": "c1ccc(NC2(c3nnnn3C3CCCCC3)CCNCC2)cc1", "target.under.test": "LOX IMVI", "GI50": "15.7 µM (inactive)"}
{"compound": "CC(=O)N(C)c1ccc(/N=C/N(C)C)cc1", "target.under.test": "LOX IMVI", "GI50": "> 100 µM (inactive)"}
{"compound": "OCC(O)COCn1cc(Cn2ncc3c(SCc4ccccc4)ncnc32)nn1 (stereo not drawn)", "target.under.test": "LOX IMVI", "GI50": "> 100 µM (inactive)"}
{"compound": "COc1ccc(C(C)NNC(=O)c2cc[n+]([BH2-]C#N)cc2)cc1OC (stereo not drawn)", "target.under.test": "LOX IMVI", "GI50": "> 100 µM (inactive)"}
{"compound": "CCCSc1cc(Cl)c(C)cc1S(=O)(=O)n1ccnc1O", "target.under.test": "LOX IMVI", "GI50": "> 100 µM (inactive)"}
{"compound": "Cc1ccc(C)c2c1CC(Cc1ccccc1C(=O)O)C2=O (stereo not drawn)", "target.under.test": "LOX IMVI", "GI50": "> 100 µM (inactive)"}
{"compound": "OCc1cn(C(c2ccccc2)(c2ccccc2)c2ccccc2)cn1", "target.under.test": "LOX IMVI", "GI50": "66.7 µM (inactive)"}
{"compound": "COc1ccc2oc(=O)c(-c3nc4ccccc4s3)cc2c1", "target.under.test": "LOX IMVI", "GI50": "17.8 µM (inactive)"}

---

Tested on: UACC-62
Assay: NCI tumour cell line growth inhibition, 48 h
The source made the active and inactive calls. Rule as the data show it: active = GI50 up to about 1.1 µM and inactive = higher. *1 amine or outer side, *2 acyl side, *3 side chain or, on linkers, in order; H or OH if unused. Where a SMILES comes first, the peptide text is derived from it. Bridges are numbered along the chain shown (N, C = ends). Roman numbers before positions name the chains, in order. [ ]: non-standard residue; d: D form. Actinocin(9to1) = Cc1c2oc3c(C)ccc(C(=O)[*:1])c3nc-2c(C(=O)[*:2])c(N)c1=O; NMeV = CN[CH](C(=O)O)C(C)C; Sar = CNCC(=O)O
Outcome codes: y (active), n (inactive)

{"compound": "CN(C)/N=N/c1ccc([N+](=O)[O-])cc1C(N)=O", "group": "n"}
{"compound": "CC(=O)NC1C(OCc2ccccc2)OC(CO)C(O)C1OCC(=O)N[C@@H](C)C(=O)N[C@H](CCC(=O)NCCCNc1ccc([N+](=O)[O-])c2[nH]c3ccccc3c(=O)c12)C(N)=O (stereo partly drawn)", "group": "n"}
{"compound": "CCCC/C=C/C1Cc2ccccc2CN1S(=O)(=O)c1ccc(C)cc1 (stereo not drawn)", "group": "n"}
{"compound": "Cc1cc(O)c(C(C)C)cc1C1(c2cc(C(C)C)c(O)cc2C)OC(=O)c2ccccc21", "group": "n"}
{"compound": "Cc1c2ccnc(C(=O)NCCN(C)C)c2cc2c3cc(O)ccc3n(C)c12", "group": "y"}
{"compound": "CCOC1OCCCC1Br (stereo not drawn)", "group": "n"}
{"compound": "CN(C)c1ccc(C2CC(C)(O)Oc3cc4c(cc32)OCO4)cc1 (stereo not drawn)", "group": "n"}
{"compound": "Cc1c2oc3c(C)ccc(C(=O)NC4C(=O)NC(Cc5ccccc5)C(=O)N5CCCC5C(=O)N(C)CC(=O)N(C)C(C(C)C)C(=O)OC4C)c3nc-2c(C(=O)NC2C(=O)NC(Cc3ccccc3)C(=O)N3CCCC3C(=O)N(C)CC(=O)N(C)C(C(C)C)C(=O)OC2C)c(N)c1=O (stereo not drawn) (I: TFP[Sar][NMeV] / II: TFP[Sar][NMeV]; ester I:1-I:C, II:1-II:C; linker I:N-II:N via Actinocin(9to1); configuration not given here)", "group": "y"}

These entries and their values trace back to ChEMBL document CHEMBL1201862.
